Source of measurements: patent US20210330611A1

# System: primary rat microglia
# EXPERIMENT SUMMARY: Cell toxicity (dead cells, size <150 μm2) in coated fibrin (cFib) assay;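 also: share of dead cells sized under 150 µm2 at 10 µM in fibrin-stimulated microglia HTS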
# DETAILS: primary HTS, 10 μM, fibrin assay, dead cells size <150 μm2
Structures can show the parent of a compound that is named as a salt.
For each entry below, report its Fibrin % cell toxicity value.
Answers are plain numbers, in %.

Use these answered entries as a reference point.
NC(=O)N1c2ccccc2C=Cc2ccccc21 [Carbamazepine] | 0
CCCC(=O)Nc1ncnc2c1ncn2[C@@H]1O[C@@H]2COP(=O)(O)O[C@H]2[C@H]1OC(=O)CCC [Bucladesine] | 1
COc1ccccc1Oc1c(NS(=O)(=O)c2ccc(C(C)(C)C)cc2)nc(-c2ncccn2)nc1OCCO [Bosentan] | 1
O=C(O)c1cc(=O)c2ccccc2o1 [Chromocarb] | 1
COCC1=C(C(=O)OC(C)OC(=O)OC(C)C)N2C(=O)[C@@H](NC(=O)/C(=N\OC)c3csc(N)n3)[C@H]2SC1 (some centres unmarked) [Cefpodoxime Proxetil] | 0
CCOc1nc2cccc(C(=O)OC(C)OC(=O)OC3CCCCC3)c2n1Cc1ccc(-c2ccccc2-c2nn[nH]n2)cc1 (centres unmarked) [Candesartan Cilextil] | 1
O=C(O)[C@H]1/C(=C/CO)O[C@@H]2CC(=O)N21 [Clavulanate] | 0
CN(C)CCCOc1nn(Cc2ccccc2)c2ccccc12 [Benzydamine] | 1
CN1CCN(C(c2ccccc2)c2ccc(Cl)cc2)CC1 (centres unmarked) [Chlorcyclizine] | 1
CC(=O)OCC(=O)[C@@]1(O)CC[C@H]2[C@@H]3CCC4=CC(=O)CC[C@]4(C)[C@H]3C(=O)C[C@@]21C [Cortisone Acetate] | 1

For each of the molecules below, state Fibrin % cell toxicity.
1. NS(=O)(=O)c1cc2c(cc1Cl)N=CNS2(=O)=O [Chlorothiazide]
2. CCC(=O)O[C@]1(C(=O)CCl)[C@@H](C)C[C@H]2[C@@H]3CCC4=CC(=O)C=C[C@]4(C)[C@@]3(F)[C@@H](O)C[C@@]21C [Clobetasol propionate, reference compound]
3. C[N+](C)(C)CC(O)CC(=O)O.[Cl-] (centres unmarked)
4. Cc1ccc2c(Br)cc(Br)c(OC(=O)c3ccccc3)c2n1 [Broxaldine]
5. CCOC(=O)C(C)(C)Oc1ccc(Cl)cc1 [Clofibrate]
6. CC(=O)NC1CCSC1=O (centres unmarked) [Citiolone]
7. CCN[C@H]1CN(CCCOC)S(=O)(=O)c2sc(S(N)(=O)=O)cc21 [Brinzolamide]
8. CN(Cc1cc(Br)cc(Br)c1N)C1CCCCC1 [Bromhexine]

Result:
[0, 1, 1, 1, 0, 0, 0, 0]

Could I get Fibrin % cell toxicity for every one of these entries?
1. CCCCOc1cc(C(=O)NCCN(CC)CC)c2ccccc2n1 [Cinchocaine]
2. CN(C)CCC(c1ccc(Br)cc1)c1ccccn1 (centres unmarked) [Brompheniramine]
3. Nc1ncnc(Nc2ccc(Cl)cc2)n1 [Chlorazanil Hydrochloride]
4. CCOc1nc2cccc(C(=O)O)c2n1Cc1ccc(-c2ccccc2-c2nnn[nH]2)cc1 [Candesartan]
5. O=c1[nH]c(=O)c2ccccc2o1 [Carsalam]
6. Cc1cc(C(C#N)c2ccc(Cl)cc2)c(Cl)cc1NC(=O)c1cc(I)cc(I)c1O (centres unmarked) [Closantel]
7. C=C[C@@]1(C)CC(=O)[C@]2(O)[C@@]3(C)[C@@H](O)CCC(C)(C)[C@@H]3[C@H](O)[C@H](OC(C)=O)[C@@]2(C)O1 [Colforsin]

Result:
0
1
1
1
0
0
1

Your task in this section: give Fibrin % cell toxicity for each listed record.
1. CO/N=C(\C(=O)N[C@@H]1C(=O)N2C(C(=O)O)=C(CSC(=O)c3ccco3)CS[C@H]12)c1csc(N)n1 [Ceftiofur Hydrochloride]
2. O=C(O)C1=C(CSc2nnnn2CS(=O)(=O)O)CS[C@@H]2[C@H](NC(=O)[C@H](O)c3ccccc3)C(=O)N12 [Cefonicid Sodium]
3. Oc1ccc(Cl)c2c1CCC2 [Chlorindanol]
4. CO/N=C(\C(=O)N[C@@H]1C(=O)N2C(C(=O)[O-])=C(C[N+]3(C)CCCC3)CS[C@H]12)c1csc(N)n1 [Cefepime]
5. C[N+](C)(CCOc1ccccc1)Cc1ccccc1.O=C([O-])c1cc2ccccc2cc1O [Bephenium Hydroxynapthoate]
6. CCCCOC(=O)c1ccc(N)cc1 [Butamben]

Result:
[1, 0, 1, 1, 1, 0]

Batch: Fibrin % cell toxicity for all items listed.
1. Nc1c(CC(=O)O)cccc1C(=O)c1ccc(Br)cc1 [Bromfenac]
2. O=C(O)CCNC(=O)c1ccccc1 [Betamipron]

Result:
1
1

List the reported Fibrin % cell toxicity of each molecule below.
1. Cc1nnc(SCC2=C(C(=O)O)N3C(=O)[C@@H](NC(=O)Cn4cnnn4)[C@H]3SC2)s1 [Cefazolin]
2. CO/N=C(\C(=O)N[C@@H]1C(=O)N2C(C(=O)O)=C(CSc3nnnn3C)CS[C@H]12)c1csc(N)n1 [Cefmenoxime Hydrochloride]

Result:
1. 1
2. 0

====

This section lists Fibrin % cell toxicity readings for primary rat microglia.

Working through the 3 compounds below one at a time, give Fibrin % cell toxicity for each.
1. CN(C)c1cnccn1.O=S(=O)(O)O [Ampyzine Sulfate]
2. N[C@@H](CC(=O)O)C(=O)O
3. O=CCc1ccc(-c2ccccc2)cc1

Result:
1. 0%
2. 1%
3. 0%

Need Fibrin % cell toxicity for each of these compounds.
1. COc1cc2c(cc1O)CC[C@@H]1[C@@H]2CC[C@]2(C)[C@@H](O)CC[C@@H]12 [2-methoxyestradiol, reference compound]
2. CC=CC1=C(C(=O)O)N2C(=O)[C@@H](NC(=O)[C@H](N)c3ccc(O)cc3)[C@H]2SC1
3. N[C@@H]1C[C@H]1c1ccccc1 (racemic)
4. NC[C@H]1O[C@H](O[C@H]2[C@H](O)[C@@H](O[C@H]3O[C@H](CO)[C@@H](O)[C@H](N)[C@H]3O)[C@H](N)C[C@@H]2N)[C@H](O)[C@@H](O)[C@@H]1O.O=S(=O)(O)O [Kanamycin Sulfate, Kanamycin A Sulfate]
5. CC(=O)O[C@H]1C(=O)[C@@]2(C)[C@H]([C@H](OC(=O)c3ccccc3)[C@]3(O)C[C@H](OC(=O)[C@H](O)[C@@H](NC(=O)c4ccccc4)c4ccccc4)C(C)=C1C3(C)C)[C@]1(OC(C)=O)CO[C@@H]1C[C@@H]2O
6. O.OC[C@@H](O)[C@@H](O[C@@H]1O[C@H](CO)[C@H](O)[C@H](O)[C@H]1O)[C@H](O)[C@@H](O)CO [D-lactitol Monohydrate]
7. NC(=O)[C@@H]1CCCN1C(=O)[C@H](Cc1cnc[nH]1)NC(=O)[C@@H]1CCC(=O)N1
8. NC[C@@H]1O[C@H](O[C@H]2[C@@H](O)[C@H](O[C@@H]3[C@@H](O)[C@H](N)C[C@H](N)[C@H]3O[C@H]3O[C@H](CN)[C@@H](O)[C@H](O)[C@H]3N)O[C@@H]2CO)[C@H](N)[C@@H](O)[C@@H]1O.O=S(=O)(O)O [Neomycin Sulfate]

Result:
1: 2%; 2: 0%; 3: 1%; 4: 0%; 5: 1%; 6: 1%; 7: 1%; 8: 0%

Quick batch: Fibrin % cell toxicity for everything below.
1. CC1=C(C/C=C(\C)CCC[C@H](C)CCC[C@H](C)CCCC(C)C)C(=O)c2ccccc2C1=O
2. CC1=C(/C=C/C(C)=C/C=C/C(C)=C/C(=O)O)C(C)(C)CCC1

Result:
1: 0%; 2: 1%

====

Exercise: for every item that follows, state its recorded inhibition at 10 µM.
# Tested on: LPS-induced microglia activation
# EXPERIMENT SUMMARY: Image-based assay of LPS-induced microglia activation (HTS and dose response)
# Type: cell-based, rat
# DETAILS: Rattus norvegicus, Microglia, primary HTS, 10 μM, LPS-stimulated primary microglia; read-out: LPS % inhibition
Enter the number, and then the unit.

Some compounds with recorded inhibition at 10 µM:
O=C(NCc1ccccc1)OCCO [Buramate] | 17%
CO[C@@]1(NC(=O)C2SC(=C(C(N)=O)C(=O)O)S2)C(=O)N2C(C(=O)O)=C(CSc3nnnn3C)CS[C@@H]21 (some centres unmarked) | -5%
C[N+](C)(C)CCOC(N)=O | 6%
CCC(=O)O[C@]1(C(=O)CCl)[C@@H](C)C[C@H]2[C@@H]3CCC4=CC(=O)C=C[C@]4(C)[C@@]3(F)[C@@H](O)C[C@@]21C [Clobetasol propionate, reference compound] | 30%
S=C=Nc1ccc(N=C=S)cc1 [Bitoscanate] | 3%

// for each compound below, give its inhibition at 10 µM
1. CC(C)(O/N=C(\C(=O)N[C@@H]1C(=O)N2C(C(=O)[O-])=C(C[n+]3ccccc3)CS[C@H]12)c1csc(N)n1)C(=O)O
2. CCCCCOC(=O)Nc1nc(=O)n([C@@H]2O[C@H](C)[C@@H](O)[C@H]2O)cc1F
3. CC(C(=O)O)c1ccc2c(c1)[nH]c1ccc(Cl)cc12 (centres unmarked)

Result:
1. 17%
2. 25%
3. 15%
